Source: PubChem BioAssay AID2060884

System: NCI-H929 complex spheroids, viability % test/control
Procedure summary: Anticancer human tumor NCI-H929 cell line growth inhibition [RAS];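 also: compound exposure lasted seven days before viability was read; 100% = DMSO vehicle control viability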
Condition description: second compound 0.03 µM; first compound 0.00949 µM; active compounds read low
Property measured: viability, T/C

[
  {
    "Compound": "CC1(C)CCC(Nc2ncc(C(F)(F)F)c(-c3c[nH]c4c(P(C)(C)=O)c(C#N)ccc34)n2)CN1 (centres undefined) + CCn1c(-c2cccnc2C(C)OC)c2c3cc(ccc31)N1CCOC(CC(NC(=O)C(C(C)C)N(C)C(=O)C3(F)CCN(C(=O)C#CC(C)(C)N(C)C)CC3)C(=O)N3CCCC(N3)C(=O)OCC(C)(C)C2)C1",
    "Study system": "NCI-H929 complex spheroids, viability % test/control",
    "viability, T/C": "3.38%"
  },
  {
    "Compound": "CCc1c2c(nc3ccc(O)cc13)-c1cc3c(c(=O)n1C2)COC(=O)[C@]3(O)CC + CCn1c(-c2cccnc2C(C)OC)c2c3cc(ccc31)N1CCOC(CC(NC(=O)C(C(C)C)N(C)C(=O)C3(F)CCN(C(=O)C#CC(C)(C)N(C)C)CC3)C(=O)N3CCCC(N3)C(=O)OCC(C)(C)C2)C1",
    "Study system": "NCI-H929 complex spheroids, viability % test/control",
    "viability, T/C": "0.74%"
  },
  {
    "Compound": "CCc1c2c(nc3ccc(O)cc13)-c1cc3c(c(=O)n1C2)COC(=O)[C@]3(O)CC + CCn1c(-c2cc(N3CCN(C)CC3)cnc2C(C)OC)c2c3cc(ccc31)-c1csc(n1)CC(NC(=O)C1CC1C)C(=O)N1CCCC(N1)C(=O)OCC(C)(C)C2",
    "Study system": "NCI-H929 complex spheroids, viability % test/control",
    "viability, T/C": "1.2%"
  }
]

Turning now to a further record.
Lab note: CC1(C)CCC(Nc2ncc(C(F)(F)F)c(-c3c[nH]c4c(P(C)(C)=O)c(C#N)ccc34)n2)CN1 (centres undefined) + CCn1c(-c2cc(N3CCN(C)CC3)cnc2C(C)OC)c2c3cc(ccc31)-c1csc(n1)CC(NC(=O)C1CC1C)C(=O)N1CCCC(N1)C(=O)OCC(C)(C)C2 gave viability, T/C of 2.91%
